B1: tRNA (parent)
chain: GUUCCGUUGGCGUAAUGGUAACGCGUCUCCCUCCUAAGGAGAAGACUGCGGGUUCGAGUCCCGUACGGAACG

- Variants of: B1
- protocol-description: yeast fitness, log relative to wild type (ln ratio); higher = fitter; tRNA-Arg(CCU), competitive growth, 37 C, 1 M NaCl
Attribute: yeast fitness (ln)
The answer should be a number; do not append a unit.

>>> df
                             input_sequence  experimental_readout  experimental_result
0  GGUCCAUUGGCGUAAUGGUAACGCGUCUCCCUCCUAAGGAGAAGACUGCGGGUUCGAGUCCCGUAUGGAGUG    yeast fitness (ln)               -0.253

Q: Fill blank: measured yeast fitness (ln) of the variant `AGUCCAUUGGCGUAAUGGUAACGCGUUUCCCUCCUAAGGAGACGAUUGCGGGUUCGAGUCCCGUACGGAGUG` is ____.
Result: -0.405

Q: Fill blank: measured yeast fitness (ln) of the variant `GGUCCUUUGGCGUAAUGGUAACGCGUUUCCCUCCUAAGGAGACGACUGCGGGUUCGAGUCCCGUAUGGGGUG` is ____.
Result: -0.51

Q: Fill blank: measured yeast fitness (ln) of the variant `GGUCCGUUGGCGUAAUGGUAACGCGUCUCCCUCCUAAGGAGACGACUGCGGGUUCGAGUCCCGUAUGGGGCG` is ____.
Result: -0.222

The reported measurements were obtained from the RNAGym collection of RNA variant scans (doi:10.1038/s41586-018-0170-7).
